assay: Phase solubility of PM in in-situ basic salt-forming agents (arginine, meglumine); type: physicochemical; conditions: 1‰ (M/V) arginine solution in UP water, aqueous with cosolvent or surfactant or cyclodextrin, thermodynamic from solid; Arginine 1‰, API saturated; read-out: Drug concentration
Counter-ions that a name gives are not always drawn.
QUANTITY MEASURED: solubility thermodynamic

What value of solubility thermodynamic has been reported for the following molecule? CN(Cc1nc2c(N3CCOCC3)nc(-c3ccc(N)cc3)nc2n1C)c1ncc(C(=O)NO)cn1 [API, purinostat mesylate]
50 µg/mL

----------
test: Phase solubility of PM in in-situ basic salt-forming agents (arginine, meglumine); type: physicochemical; settings: 5‰ (M/V) meglumine solution in UP water, aqueous with cosolvent or surfactant or cyclodextrin, thermodynamic from solid; Meglumine 5‰, API saturated; read-out: Drug concentration
Counter-ions that a name gives are not always drawn.
QUANTITY MEASURED: solubility thermodynamic (µg/mL)
Value expressed in µg/mL; do not type the unit.

Given CN(Cc1nc2c(N3CCOCC3)nc(-c3ccc(N)cc3)nc2n1C)c1ncc(C(=O)NO)cn1 [API, purinostat mesylate] , state its recorded solubility thermodynamic.
350

----------
assay: Phase solubility of PM in in-situ basic salt-forming agents (arginine, meglumine); format: physicochemical; conditions: 8‰ (M/V) arginine solution in UP water, aqueous with cosolvent or surfactant or cyclodextrin, thermodynamic from solid; Arginine 8‰, API saturated; read-out: Drug concentration
Counter-ions that a name gives are not always drawn.
QUANTITY MEASURED: solubility thermodynamic (µg/mL)
Write the number in µg/mL without appending the unit.

Entry CN(Cc1nc2c(N3CCOCC3)nc(-c3ccc(N)cc3)nc2n1C)c1ncc(C(=O)NO)cn1 [API, purinostat mesylate] : reported solubility thermodynamic = ?
280

----------
Experiment: Phase solubility of PM in in-situ basic salt-forming agents (arginine, meglumine)
Type: physicochemical
Details: 1‰ (M/V) meglumine solution in UP water, aqueous with cosolvent or surfactant or cyclodextrin, thermodynamic from solid; Meglumine 1‰, API saturated; read-out: Drug concentration
Protocol: According to the pH guidance standard for injection, the optimal pH range for injection was 4-9. Then, excessive PM raw materials were added and dissolved under ultrasound until saturation. […] The concentration (mg/mL) and purity […] of dissolved PM raw materials were detected by HPLC, and then, whether there was drug precipitation was observed using a clarity detector after being stored in a refrigerator at 4° C. in dark for one day.
Structures can show the parent of a compound that is named as a salt.
QUANTITY MEASURED: solubility thermodynamic (µg/mL)
Field format: number, assumed µg/mL, no unit text.

What solubility thermodynamic value was documented for this molecule, CN(Cc1nc2c(N3CCOCC3)nc(-c3ccc(N)cc3)nc2n1C)c1ncc(C(=O)NO)cn1 [API, purinostat mesylate] ?
130

----------
experiment: Phase solubility of PM in in-situ basic salt-forming agents (arginine, meglumine); format: physicochemical; conditions: 3‰ (M/V) meglumine solution in UP water, aqueous with cosolvent or surfactant or cyclodextrin, thermodynamic from solid; Meglumine 3‰, API saturated; read-out: Drug concentration
Where a name gives a salt, the structure may show the parent alone.
QUANTITY MEASURED: solubility thermodynamic (µg/mL)
Response body: numeric value in µg/mL, unit text excluded.

Fill in the blank: the reported solubility thermodynamic of CN(Cc1nc2c(N3CCOCC3)nc(-c3ccc(N)cc3)nc2n1C)c1ncc(C(=O)NO)cn1 [API, purinostat mesylate] is ____.
240

----------
assay: Phase solubility of PM in in-situ basic salt-forming agents (arginine, meglumine); format: physicochemical; conditions: 5‰ (M/V) arginine solution in UP water, aqueous with cosolvent or surfactant or cyclodextrin, thermodynamic from solid; Arginine 5‰, API saturated; read-out: Drug concentration
Counter-ions that a name gives are not always drawn.
QUANTITY MEASURED: solubility thermodynamic (µg/mL)
Please reply with the bare figure in µg/mL and do not write the unit itself.

I'd like to know its solubility thermodynamic. The compound in question is CN(Cc1nc2c(N3CCOCC3)nc(-c3ccc(N)cc3)nc2n1C)c1ncc(C(=O)NO)cn1 [API, purinostat mesylate]
170
